Numbers sourced from ChEMBL document CHEMBL3352405.

Target: Lysophosphatidic acid receptor 2 (Homo sapiens)
Assay: Agonist activity at human LPA2 expressed in LPA1xLPA2 double knockout mouse MEF cells by Fura-2AM dye based Ca2+ mobilization assay
reportedProperty: EC50 (nM)

>>> testresult("O=C(O)c1ccccc1S(=O)(=O)NCCCCCN1C(=O)c2cccc3cccc(c23)C1=O")
1420
>>> testresult("O=C(O)c1cc(Br)ccc1S(=O)(=O)NCCCCN1C(=O)c2cccc3cccc(c23)C1=O")
60
>>> testresult("O=C(O)c1cc(F)ccc1S(=O)(=O)NCCCCN1C(=O)c2cccc3cccc(c23)C1=O")
0.15
>>> testresult("O=C(O)c1ccccc1S(=O)(=O)NCCCCN1C(=O)c2cccc3cccc(c23)C1=O")
110

P. O=C(O)c1ccccc1S(=O)(=O)NCCCN1C(=O)c2cccc3cccc(c23)C1=O
Q. O=C(O)c1ccc(Br)cc1S(=O)(=O)NCCCCN1C(=O)c2cccc3cccc(c23)C1=O
Q) Compare P and Q and name the one whose reported EC50 is smaller. Answer by stating the label of the chosen item.
A) Q
(Q: 50 nM, P: 2160 nM)

----------
Biological target: Lysophosphatidic acid receptor 3 (Homo sapiens)
Sequence (Q9UBY5 whole entry): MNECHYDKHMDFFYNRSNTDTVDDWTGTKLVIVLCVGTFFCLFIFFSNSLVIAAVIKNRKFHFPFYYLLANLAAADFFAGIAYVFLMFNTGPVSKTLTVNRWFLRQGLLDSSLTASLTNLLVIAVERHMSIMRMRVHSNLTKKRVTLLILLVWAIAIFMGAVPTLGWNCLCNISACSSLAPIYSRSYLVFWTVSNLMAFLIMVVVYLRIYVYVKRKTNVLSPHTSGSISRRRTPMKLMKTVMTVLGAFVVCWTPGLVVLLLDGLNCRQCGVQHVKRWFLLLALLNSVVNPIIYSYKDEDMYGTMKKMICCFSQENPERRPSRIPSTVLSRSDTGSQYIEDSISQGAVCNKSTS
Experiment: Antagonist activity at human LPA3 expressed in RH7777 cells assessed as reduction in […]-induced calcium mobilization by Fura-2AM dye based Ca2+ mobilization assay
reportedProperty: pIC50
To interpret pIC50, take it as minus log10 of a concentration measured in moles per litre.

Looking up O=C(O)c1ccccc1SCCCN1C(=O)c2cccc3cccc(c23)C1=O , I see its pIC50 listed as 5.18

----------
Biological target: Lysophosphatidic acid receptor 2 (Homo sapiens, UniProt Q9HBW0)
Sequence (Q9HBW0 whole entry): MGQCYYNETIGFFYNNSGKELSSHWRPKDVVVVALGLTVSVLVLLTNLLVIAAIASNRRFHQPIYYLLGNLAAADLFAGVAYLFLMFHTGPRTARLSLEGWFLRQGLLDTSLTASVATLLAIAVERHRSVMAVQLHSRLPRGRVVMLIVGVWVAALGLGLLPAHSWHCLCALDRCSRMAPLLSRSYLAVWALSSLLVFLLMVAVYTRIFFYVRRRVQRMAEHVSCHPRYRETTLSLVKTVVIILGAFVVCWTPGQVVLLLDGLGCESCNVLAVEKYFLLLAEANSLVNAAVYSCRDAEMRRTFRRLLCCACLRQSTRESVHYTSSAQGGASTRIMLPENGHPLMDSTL
Assay: Agonist activity at human LPA2 expressed in LPA1xLPA2 double knockout mouse MEF cells by Fura-2AM dye based Ca2+ mobilization assay relative to LPA 18:1
Type: functional, cell-based
reportedProperty: Emax (%)

>>> testresult("O=C(O)c1cc(Cl)ccc1S(=O)(=O)NCCCCN1C(=O)c2cccc3cccc(c23)C1=O")
124
>>> testresult("O=C(O)c1ccccc1S(=O)(=O)NCCCCCN1C(=O)c2cccc3cccc(c23)C1=O")
100
>>> testresult("O=C(O)c1ccccc1S(=O)(=O)NCCCCN1C(=O)c2cccc3cccc(c23)C1=O")
100
>>> testresult("O=C(O)c1cc(F)ccc1S(=O)(=O)NCCCCN1C(=O)c2cccc3cccc(c23)C1=O")
119
>>> testresult("O=C(O)c1ccc(Br)cc1S(=O)(=O)NCCCCN1C(=O)c2cccc3cccc(c23)C1=O")
100
>>> testresult("O=C(O)c1cc(Br)ccc1S(=O)(=O)NCCCCN1C(=O)c2cccc3cccc(c23)C1=O")
104
>>> testresult("O=C(O)c1ccccc1SCCCN1C(=O)c2cccc3cccc(c23)C1=O")
75
>>> testresult("O=C(O)c1ccc2c(c1)S(=O)(=O)N(CCCCN1C(=O)c3cccc4cccc(c34)C1=O)C2=O")
100
